- SYSTEM TESTED: GluK2 kainate receptor (Rattus norvegicus, UniProt P42260, I567V/Y571C)
- Construct: gene Grik2; full-length rat GluK2 (GenBank CAA77778.1), V567, C571, Q621 (Q/R site unedited); LBD-TMD modelled (S429-R874); homotetramer
- Sequence (P42260 32-908 I567V/Y571C): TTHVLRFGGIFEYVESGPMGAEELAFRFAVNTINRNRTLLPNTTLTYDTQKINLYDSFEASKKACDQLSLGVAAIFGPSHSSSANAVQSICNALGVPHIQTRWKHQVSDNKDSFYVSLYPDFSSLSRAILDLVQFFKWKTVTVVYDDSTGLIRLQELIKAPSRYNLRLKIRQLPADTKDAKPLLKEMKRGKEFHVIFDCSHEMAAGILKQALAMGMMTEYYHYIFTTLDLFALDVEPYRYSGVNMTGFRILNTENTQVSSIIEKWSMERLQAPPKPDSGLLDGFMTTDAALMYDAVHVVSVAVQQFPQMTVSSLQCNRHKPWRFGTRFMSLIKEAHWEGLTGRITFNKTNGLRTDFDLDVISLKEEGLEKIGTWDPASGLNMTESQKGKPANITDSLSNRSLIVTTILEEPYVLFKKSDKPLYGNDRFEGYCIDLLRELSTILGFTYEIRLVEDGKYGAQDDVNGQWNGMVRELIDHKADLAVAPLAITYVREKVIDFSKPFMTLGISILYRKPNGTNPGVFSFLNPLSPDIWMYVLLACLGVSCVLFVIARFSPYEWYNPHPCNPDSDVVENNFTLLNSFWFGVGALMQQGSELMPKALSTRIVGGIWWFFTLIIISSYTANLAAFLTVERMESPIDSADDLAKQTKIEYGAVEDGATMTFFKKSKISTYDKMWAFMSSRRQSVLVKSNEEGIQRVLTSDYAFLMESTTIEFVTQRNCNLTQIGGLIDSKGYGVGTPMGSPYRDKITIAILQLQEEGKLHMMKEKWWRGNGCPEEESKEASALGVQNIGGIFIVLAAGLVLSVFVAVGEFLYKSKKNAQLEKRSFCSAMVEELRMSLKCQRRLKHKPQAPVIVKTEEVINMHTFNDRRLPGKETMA
- TEST SUMMARY: cryo-EM structure ([…] Å, with BPAM344); IC50 from whole-cell patch clamp in HEK293 cells
- Type: cell-based
pIC50: −log10 of the molar value.
OBSERVED PROPERTY: pIC50

>>> obs_value("NCCCNCCCCNCCCN [SPM, spermine]")
2.11

* * *

- SYSTEM TESTED: GluK2 kainate receptor (Rattus norvegicus, UniProt P42260, I567V/Y571C)
- Construct: gene Grik2; full-length rat GluK2 (GenBank CAA77778.1), V567, C571, Q621 (Q/R site unedited); LBD-TMD modelled (S429-R874); homotetramer
- TEST SUMMARY: cryo-EM structure ([…] Å, with BPAM344); IC50 from whole-cell patch clamp in HEK293 cells
- Assay type: cell-based
OBSERVED PROPERTY: IC50 (µM)

>>> obs_value("O=C(CCc1ccc(O)c(O)c1)NCCCNCCCCNCCCNC(=O)CCc1ccc(O)c(O)c1 [KukoA, Kukoamine A]")
704
